Origin of values: paper PMC9182199

Recorded inhibition at 100 µM by entry
# target under test: bovine kidney α-L-fucosidase (Bos taurus)
# Construct: purchased Sigma-Aldrich Co
# Sequence (Q2KIM0 23-468): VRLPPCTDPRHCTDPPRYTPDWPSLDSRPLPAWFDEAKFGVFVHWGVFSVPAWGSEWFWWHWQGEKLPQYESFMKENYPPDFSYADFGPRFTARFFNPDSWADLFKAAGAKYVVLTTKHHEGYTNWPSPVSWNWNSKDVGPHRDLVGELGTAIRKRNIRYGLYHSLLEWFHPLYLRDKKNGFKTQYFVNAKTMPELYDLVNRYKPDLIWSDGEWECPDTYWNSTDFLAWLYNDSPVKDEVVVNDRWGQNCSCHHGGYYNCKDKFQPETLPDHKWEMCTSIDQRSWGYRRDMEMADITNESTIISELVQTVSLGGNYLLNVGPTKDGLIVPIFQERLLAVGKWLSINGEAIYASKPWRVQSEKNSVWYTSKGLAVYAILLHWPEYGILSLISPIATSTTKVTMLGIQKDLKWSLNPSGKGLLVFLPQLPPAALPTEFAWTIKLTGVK
# procedure details: Glycosidase inhibition, laboratory 1: α-L-fucosidase
# Type: biochemical
# stated conditions: 100 μM, methanol

{"molecule": "CC1(C)OB(c2cccc(NC(=O)c3cc(Cl)c(Cl)c(Cl)c3Cl)c2)OC1(C)C [meta 5]", "inhibition at 100 µM, %": 3.3}
{"molecule": "CC1(C)OB(c2ccccc2CNC(=O)c2cc(Cl)c(Cl)c(Cl)c2Cl)OC1(C)C [ortho 8]", "inhibition at 100 µM, %": 19.9}
{"molecule": "CC1(C)OB(c2ccc(CN3C(=O)c4c(Cl)c(Cl)c(Cl)c(Cl)c4C3=O)cc2)OC1(C)C [para 3]", "inhibition at 100 µM, %": 0}
{"molecule": "CC1(C)OB(c2ccc(NC(=O)c3cc(Cl)c(Cl)c(Cl)c3Cl)cc2)OC1(C)C [para 5]", "inhibition at 100 µM, %": 5.1}

* * *

# target under test: Jack bean α-mannosidase (Canavalia ensiformis, UniProt C0HJB3)
# Construct: purchased Sigma-Aldrich Co
# Sequence (C0HJB3 whole entry): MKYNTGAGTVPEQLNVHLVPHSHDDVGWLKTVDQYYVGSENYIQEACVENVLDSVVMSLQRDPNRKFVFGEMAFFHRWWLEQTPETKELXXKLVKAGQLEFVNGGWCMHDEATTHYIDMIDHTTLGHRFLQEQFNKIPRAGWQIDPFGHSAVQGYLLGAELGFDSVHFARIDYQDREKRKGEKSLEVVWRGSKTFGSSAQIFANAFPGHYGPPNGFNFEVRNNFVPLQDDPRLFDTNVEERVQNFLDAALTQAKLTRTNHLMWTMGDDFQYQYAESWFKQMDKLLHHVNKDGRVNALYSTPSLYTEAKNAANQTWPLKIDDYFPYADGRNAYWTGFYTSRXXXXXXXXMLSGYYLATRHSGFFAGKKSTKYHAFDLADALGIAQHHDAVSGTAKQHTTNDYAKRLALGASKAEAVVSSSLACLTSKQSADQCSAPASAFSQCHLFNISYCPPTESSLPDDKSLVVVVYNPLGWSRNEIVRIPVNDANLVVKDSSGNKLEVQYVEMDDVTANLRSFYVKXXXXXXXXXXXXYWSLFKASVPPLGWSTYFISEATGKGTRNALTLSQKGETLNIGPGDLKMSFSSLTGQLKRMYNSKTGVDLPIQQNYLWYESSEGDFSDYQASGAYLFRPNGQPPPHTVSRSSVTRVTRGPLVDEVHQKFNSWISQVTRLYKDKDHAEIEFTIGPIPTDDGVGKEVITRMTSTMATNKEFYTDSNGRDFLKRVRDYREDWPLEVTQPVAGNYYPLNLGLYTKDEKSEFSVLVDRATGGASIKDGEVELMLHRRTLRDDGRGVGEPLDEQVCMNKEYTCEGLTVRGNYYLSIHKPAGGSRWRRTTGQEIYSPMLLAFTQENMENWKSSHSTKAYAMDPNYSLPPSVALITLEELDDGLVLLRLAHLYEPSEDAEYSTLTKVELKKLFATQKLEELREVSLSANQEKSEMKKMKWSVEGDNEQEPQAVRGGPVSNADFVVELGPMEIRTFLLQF
# procedure details: Glycosidase inhibition, laboratory 2: Jack bean α-mannosidase
# Type: biochemical
# stated conditions: read-out: % inhibition at ~400 μM, water

{"molecule": "CC1(C)OB(c2ccc(NC(=O)c3cc(Cl)c(Cl)c(Cl)c3Cl)cc2)OC1(C)C", "target under test": "Jack bean α-mannosidase (Canavalia ensiformis, UniProt C0HJB3)", "inhibition at 400 µM [%]": -8.2}
{"molecule": "CC1(C)OB(c2cccc(NC(=O)c3cc(Cl)c(Cl)c(Cl)c3Cl)c2)OC1(C)C", "target under test": "Jack bean α-mannosidase (Canavalia ensiformis, UniProt C0HJB3)", "inhibition at 400 µM [%]": 2.2}
{"molecule": "N[C@@H](Cc1ccc(B(O)O)cc1)C(=O)O [BPA, 4-borono-L-phenylalanine, reference compound]", "target under test": "Jack bean α-mannosidase (Canavalia ensiformis, UniProt C0HJB3)", "inhibition at 400 µM [%]": 0.6}
{"molecule": "CC1(C)OB(c2cccc(CN3C(=O)c4c(Cl)c(Cl)c(Cl)c(Cl)c4C3=O)c2)OC1(C)C", "target under test": "Jack bean α-mannosidase (Canavalia ensiformis, UniProt C0HJB3)", "inhibition at 400 µM [%]": 30.3}

* * *

Measured inhibition at 100 µM of individual entries
# target under test: rice α-glucosidase (Oryza sativa subsp. japonica, UniProt Q653V7)
# Sequence (Q653V7 34-885): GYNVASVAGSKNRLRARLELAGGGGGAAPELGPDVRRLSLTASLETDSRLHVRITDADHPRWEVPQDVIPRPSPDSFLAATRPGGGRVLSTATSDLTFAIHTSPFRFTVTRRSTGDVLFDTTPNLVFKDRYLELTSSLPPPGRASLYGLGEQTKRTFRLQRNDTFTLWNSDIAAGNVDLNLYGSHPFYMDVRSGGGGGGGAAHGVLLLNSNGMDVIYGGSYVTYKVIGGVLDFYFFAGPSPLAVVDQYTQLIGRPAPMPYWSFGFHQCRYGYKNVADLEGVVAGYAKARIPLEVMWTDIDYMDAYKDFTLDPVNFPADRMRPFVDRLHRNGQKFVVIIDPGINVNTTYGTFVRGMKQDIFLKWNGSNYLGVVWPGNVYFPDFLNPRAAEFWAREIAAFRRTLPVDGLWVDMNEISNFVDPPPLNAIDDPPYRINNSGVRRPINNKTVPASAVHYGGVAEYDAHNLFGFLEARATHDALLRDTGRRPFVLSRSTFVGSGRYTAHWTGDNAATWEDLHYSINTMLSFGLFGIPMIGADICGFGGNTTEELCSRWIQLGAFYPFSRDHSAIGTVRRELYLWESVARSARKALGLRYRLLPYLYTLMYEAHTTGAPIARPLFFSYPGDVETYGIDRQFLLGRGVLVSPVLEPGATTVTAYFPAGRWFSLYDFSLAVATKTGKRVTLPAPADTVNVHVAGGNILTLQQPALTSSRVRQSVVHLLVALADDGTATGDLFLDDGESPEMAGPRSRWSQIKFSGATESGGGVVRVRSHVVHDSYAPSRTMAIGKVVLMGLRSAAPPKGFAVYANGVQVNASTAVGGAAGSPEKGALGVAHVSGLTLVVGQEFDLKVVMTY
# procedure details: Glycosidase inhibition, laboratory 1: rice α-glucosidase
# Assay type: biochemical
# stated conditions: 100 μM, methanol

{"smiles notation": "CC1(C)OB(c2cccc(NC(=O)c3cc(Cl)c(Cl)c(Cl)c3Cl)c2)OC1(C)C", "unit string": "%", "inhibition at 100 µM": 45.5}
{"smiles notation": "CC1(C)OB(c2ccc(CN3C(=O)c4c(Cl)c(Cl)c(Cl)c(Cl)c4C3=O)cc2)OC1(C)C", "unit string": "%", "inhibition at 100 µM": 5.6}
{"smiles notation": "CC1(C)OB(c2ccccc2CNC(=O)c2cc(Cl)c(Cl)c(Cl)c2Cl)OC1(C)C", "unit string": "%", "inhibition at 100 µM": 0}
{"smiles notation": "CC1(C)OB(c2ccc(NC(=O)c3cc(Cl)c(Cl)c(Cl)c3Cl)cc2)OC1(C)C", "unit string": "%", "inhibition at 100 µM": 0}

* * *

Reported values of inhibition at 25 µM for individual entries
# Test system: MCF-7
# procedure details: MTT cell growth inhibition: MCF-7
# Type: cell-based
# stated conditions: Homo sapiens, MCF7; MCF-7 breast carcinoma; 25 µM; 72 h; MTT; read-out: Percentage (%) Cell Growth Inhibition in response to 25 µM of Drug

{"compound": "CC1(C)OB(c2ccc(CN3C(=O)c4c(Cl)c(Cl)c(Cl)c(Cl)c4C3=O)cc2)OC1(C)C [para 3]", "inhibition at 25 µM": "> 100%"}
{"compound": "CC1(C)OB(c2ccccc2CNC(=O)c2cc(Cl)c(Cl)c(Cl)c2Cl)OC1(C)C [ortho 8]", "inhibition at 25 µM": "< 0%"}
{"compound": "CC1(C)OB(c2ccccc2NC(=O)c2cc(Cl)c(Cl)c(Cl)c2Cl)OC1(C)C [ortho 5]", "inhibition at 25 µM": "> 100%"}
{"compound": "N[C@@H](Cc1ccc(B(O)O)cc1)C(=O)O [BPA, 4-borono-L-phenylalanine, reference compound]", "inhibition at 25 µM": "< 0%"}
